Study system: UniProt A0A1V1WC03
Sequence (A0A1V1WC03 entry or part of it): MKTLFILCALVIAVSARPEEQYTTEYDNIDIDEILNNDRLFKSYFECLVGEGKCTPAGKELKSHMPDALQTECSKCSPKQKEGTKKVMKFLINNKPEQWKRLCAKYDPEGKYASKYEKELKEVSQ
Test name: Fluorescence competitive binding assay with 1-NPN as fluorescent probe
Study conditions: Ki, pH 5.0; calculated from IC50
pKi: −log10 of the molar value.
Decide by pKi: equal to or exceeding 5 means fulfilled, less means not fulfilled.

The examples below pair each entry with its known result.
>  <Compound>
CC/C=C\CCOC(C)=O [Cis-3-hexenyl acetate]

>  <Category>
not fulfilled

$$$$
>  <Compound>
CCC/C=C/C=O [Trans-2-hexenal]

>  <Category>
fulfilled

$$$$

Determine whether this compound has pKi no lower than 5: CCC(C)C=O (centres unmarked)
not fulfilled

Determine whether this compound has pKi no lower than 5: C=CC(C)(O)CCC=C(C)C (centres unmarked)
not fulfilled

Determine whether this compound has pKi no lower than 5: CCC/C=C/CO [Trans-2-hexen-1-ol]
fulfilled
